- STUDY_TARGET: PKMYT1 enzyme (Homo sapiens, UniProt Q99640)
- Construct: purchased Thermo Scientific A33387
- EXPERIMENTAL_PROTOCOL: PKMYT1 enzyme inhibition activity, ADP-GLO method
- Format: biochemical
- CONDITION_INFO: PKMYT1 enzyme 10 nM, ATP 5 µM, 37°C 90 minutes; read-out: ADP-GLO IC50
pIC50: −log10 of the molar value.
ENDPOINT: pIC50

compound=CCc1nc(C)nc2c1c(C(N)=O)c(N)n2-c1c(C)c(O)cc(F)c1C study_target="PKMYT1 enzyme (Homo sapiens, UniProt Q99640)" endpoint=pIC50 experimental_value=7.41
compound="Cc1cc(F)c(O)c(C)c1-n1c(N)c(C(N)=O)c2cc(C(F)(F)F)c(C)nc21 [Example 59]" study_target="PKMYT1 enzyme (Homo sapiens, UniProt Q99640)" endpoint=pIC50 experimental_value=8.06
compound="Cc1c(O)cc(F)c(C)c1-n1c(N)c(C(N)=O)c2cc(C(C)C)cnc21 (atropisomer, axis not shown) [Example 113.2]" study_target="PKMYT1 enzyme (Homo sapiens, UniProt Q99640)" endpoint=pIC50 experimental_value=8.39
compound=CCc1cnc2c(c1)c(C(N)=O)c(N)n2-c1c(C)cc(F)c(O)c1C study_target="PKMYT1 enzyme (Homo sapiens, UniProt Q99640)" endpoint=pIC50 experimental_value=8.11

---

- STUDY_TARGET: PKMYT1 enzyme (Homo sapiens, UniProt Q99640)
- Construct: purchased Thermo Scientific A33387
- Sequence (Q99640 1-499): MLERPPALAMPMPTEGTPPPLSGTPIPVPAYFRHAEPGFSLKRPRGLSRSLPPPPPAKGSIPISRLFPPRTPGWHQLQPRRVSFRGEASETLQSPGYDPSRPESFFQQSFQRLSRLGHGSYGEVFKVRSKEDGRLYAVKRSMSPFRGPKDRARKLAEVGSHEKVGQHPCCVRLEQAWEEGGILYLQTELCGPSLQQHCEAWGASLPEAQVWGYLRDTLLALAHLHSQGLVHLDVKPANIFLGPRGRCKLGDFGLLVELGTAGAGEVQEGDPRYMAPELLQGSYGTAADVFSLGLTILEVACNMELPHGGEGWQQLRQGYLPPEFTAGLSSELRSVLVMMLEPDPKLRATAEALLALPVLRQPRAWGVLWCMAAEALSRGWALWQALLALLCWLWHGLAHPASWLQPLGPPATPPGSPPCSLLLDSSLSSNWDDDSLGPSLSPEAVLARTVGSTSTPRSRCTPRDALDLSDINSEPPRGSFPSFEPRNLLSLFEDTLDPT
- EXPERIMENTAL_PROTOCOL: PKMYT1 enzyme inhibition activity, ADP-GLO method
- Format: biochemical
- CONDITION_INFO: PKMYT1 enzyme 10 nM, ATP 5 µM, 37°C 90 minutes; read-out: ADP-GLO IC50
pIC50: −log10 of the molar value.
Known pIC50 of a selection of compounds
ENDPOINT: pIC50

compound=Cc1cc2c(C(N)=O)c(N)n(-c3c(C)cc(Br)c(O)c3C)c2nc1C experimental_value=6.73
compound="Cc1cc(F)c(O)c(C)c1-n1c(N)c(C(N)=O)c2cc(C3CC3)cnc21 (single isomer, unassigned) [Example 144.1]" experimental_value=8.68
compound=Cc1cc(F)c(O)c(C)c1-n1c(N)c(C(N)=O)c2c3cnccc3c(C)cc21 experimental_value=8.39
compound=C=C(C)c1nc2c(cc1C)c(C(N)=O)c(N)n2-c1c(C)c(O)cc(F)c1C experimental_value=7.57
compound=Cc1c(O)cc(F)c(C)c1-n1c(N)c(C(N)=O)c2cc(C3CC3)cnc21 experimental_value=8.45
compound="Cc1ncc2c(C(N)=O)c(N)n(-c3c(C)c(O)cc(F)c3C)c2c1F (atropisomer, axis not shown) [Example 71.1]" experimental_value=8.37
compound=Cc1cc2c(C(N)=O)c(N)n(-c3c(C)c(O)cc(F)c3C)c2nc1-c1cccnc1 experimental_value=8.19
compound=Cc1ccc(O)c(C)c1-n1c(N)c(C(N)=O)c2cnc(C3CCC(F)(F)CC3)nc21 experimental_value=7.80
compound=Cc1cc2c(C(N)=O)c(N)n(-c3c(C)cnc(O)c3C)c2nc1C experimental_value=6.66
compound=Cc1ccc(O)c(C)c1-n1c(N)c(C(N)=O)c2cnc(Nc3ccccc3)nc21 experimental_value=7.95
compound="Cc1nc2c(cc1Br)c(C(N)=O)c(N)n2-c1c(C)c(O)cc(F)c1C (racemic)" experimental_value=8.49
compound=COC(C)(C)c1cc2c(C(N)=O)c(N)n(-c3c(C)cc(F)c(O)c3C)c2nc1C experimental_value=7.57
compound="Cc1cc(F)c(O)c(C)c1-n1c(N)c(C(N)=O)c2c3c(cnc21)CCC3 (racemic) [Example 186]" experimental_value=8.13
compound=Cc1nc2c(cc1C1CC1)c(C(N)=O)c(N)n2-c1c(C)c(O)cc(F)c1C experimental_value=8.24
compound=CC(C)=Cc1ncc2c(C(N)=O)c(N)n(-c3c(C)ccc(O)c3C)c2n1 experimental_value=8.18
compound="Cc1cc(F)c(O)c(C)c1-n1c(N)c(C(N)=O)c2cc(N3CCCC3)c(C)nc21 (racemic) [Example 162]" experimental_value=7.84
